- System: Methicillin-resistant Staphylococcus aureus OC 3726 COL
- measurement-description: In vitro antibacterial activity, microdilution broth MIC (NCCLS M7-A4), strain C
- Assay type: cell-based
- study-conditions: cation adjusted Mueller-Hinton broth, 35° C., 16-20 hours

molecule: COC1C=COC2(C)Oc3c(C)c(O)c4c(O)c(c(C=NN5CCN(Cc6cc(-c7ccc(OCCCN(C)C)cc7)no6)CC5)c(O)c4c3C2=O)NC(=O)C(C)=CC=CC(C)C(O)C(C)C(O)C(C)C(OC(C)=O)C1C (stereo not shown) [Compound 17]
study-system: Methicillin-resistant Staphylococcus aureus OC 3726 COL
MIC (μg/mL) C Strain, µg/mL: 0.12
--
molecule: COC1C=COC2(C)Oc3c(C)c(O)c4c(O)c(c(C=NN5CCN(Cc6noc(-c7ccc(Cl)cc7)n6)CC5)c(O)c4c3C2=O)NC(=O)C(C)=CC=CC(C)C(O)C(C)C(O)C(C)C(OC(C)=O)C1C (stereo not shown) [Compound 25]
study-system: Methicillin-resistant Staphylococcus aureus OC 3726 COL
MIC (μg/mL) C Strain, µg/mL: 0.25
--
molecule: COC(=O)c1c(-c2ccc(Cl)cc2)noc1CN1CCN(N=Cc2c3c(O)c4c(O)c(C)c5c(c4c2O)C(=O)C(C)(OC=CC(OC)C(C)C(OC(C)=O)C(C)C(O)C(C)C(O)C(C)C=CC=C(C)C(=O)N3)O5)CC1 (stereo not shown) [Compound 18]
study-system: Methicillin-resistant Staphylococcus aureus OC 3726 COL
MIC (μg/mL) C Strain, µg/mL: 0.5
--
molecule: COC1C=COC2(C)Oc3c(C)c(O)c4c(O)c(c(C=NN5CCN(Cc6ccc(-c7ccc(Cl)cc7)o6)CC5)c(O)c4c3C2=O)NC(=O)C(C)=CC=CC(C)C(O)C(C)C(O)C(C)C(OC(C)=O)C1C (stereo not shown) [Compound 23]
study-system: Methicillin-resistant Staphylococcus aureus OC 3726 COL
MIC (μg/mL) C Strain, µg/mL: 0.25

---

- System: Methicillin-resistant Staphylococcus aureus OC 3726 COL
- measurement-description: In vitro antibacterial activity, microdilution broth MIC (NCCLS M7-A4), strain C
- Assay type: cell-based
- study-conditions: cation adjusted Mueller-Hinton broth, 35° C., 16-20 hours

compound: COC1C=COC2(C)Oc3c(C)c(O)c4c(O)c(c(C=NN5CCN(Cc6cc(-c7ccc(Cl)cc7)no6)CC5)c(O)c4c3C2=O)NC(=O)C(C)=CC=CC(C)C(O)C(C)C(O)C(C)C(OC(C)=O)C1C (stereo not drawn)
MIC (μg/mL) C Strain, µg/mL: 0.5

compound: COC1C=COC2(C)Oc3c(C)c(O)c4c(O)c(c(C=NN5CCN(Cc6cc(-c7ccc(C)cc7)no6)CC5)c(O)c4c3C2=O)NC(=O)C(C)=CC=CC(C)C(O)C(C)C(O)C(C)C(OC(C)=O)C1C (stereo not drawn)
MIC (μg/mL) C Strain, µg/mL: 0.5

compound: COC1C=COC2(C)Oc3c(C)c(O)c4c(O)c(c(C=NN5CCN(Cc6cc(-c7ccc(F)c(F)c7)no6)CC5)c(O)c4c3C2=O)NC(=O)C(C)=CC=CC(C)C(O)C(C)C(O)C(C)C(OC(C)=O)C1C (stereo not drawn)
MIC (μg/mL) C Strain, µg/mL: 0.25

compound: COC1C=COC2(C)Oc3c(C)c(O)c4c(O)c(c(C=NN5CCN(CCCc6cc(-c7ccccc7)no6)CC5)c(O)c4c3C2=O)NC(=O)C(C)=CC=CC(C)C(O)C(C)C(O)C(C)C(OC(C)=O)C1C (stereo not drawn)
MIC (μg/mL) C Strain, µg/mL: 0.5

compound: COC1C=COC2(C)Oc3c(C)c(O)c4c(O)c(c(C=NN5CCN(Cc6cc(-c7cccc(Cl)c7)no6)CC5)c(O)c4c3C2=O)NC(=O)C(C)=CC=CC(C)C(O)C(C)C(O)C(C)C(OC(C)=O)C1C (stereo not drawn)
MIC (μg/mL) C Strain, µg/mL: 0.5

compound: COC1C=COC2(C)Oc3c(C)c(O)c4c(O)c(c(C=NN5CCN(Cc6cc(-c7ccccc7)no6)CC5)c(O)c4c3C2=O)NC(=O)C(C)=CC=CC(C)C(O)C(C)C(O)C(C)C(OC(C)=O)C1C (stereo not drawn)
MIC (μg/mL) C Strain, µg/mL: 0.12

compound: COC1C=COC2(C)Oc3c(C)c(O)c4c(O)c(c(C=NN5CCN(Cc6ccc(-c7ccccc7)s6)CC5)c(O)c4c3C2=O)NC(=O)C(C)=CC=CC(C)C(O)C(C)C(O)C(C)C(OC(C)=O)C1C (stereo not drawn)
MIC (μg/mL) C Strain, µg/mL: 1
